The reported measurements were obtained from the supplement of paper PMC9112550.

# Tested on: Escherichia coli TOP10
# test method notes: shrunken log2 fold change of peptide-encoding DNA abundance (4.5 h post-induction vs induction); higher = less antimicrobial activity (less host growth inhibition)
# measurement setup: time post-induction: 4.5 h; library: site-saturation at positions 5, 18, 19, 20
endpoint: shrunken log2 fold change
Field format: numeric only.

{"sequence entry": "RRIRERPPRLPRPRPRPPITPRP", "shrunken log2 fold change": -0.351}

Query string: GET /values?readout=shrunken log2 fold change&system=Escherichia coli TOP10&item= `RRIRCRPPRLPRPRPRPAMHPRP`;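 note: peptides expressed intracellularly from a pBAD plasmid library in pooled LB shake-flask culture, induced with 0.3% L-arabinose, DNA abundance read by NGS, three biological replicates, DESeq2 with apeglm shrinkage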
Result string: 0.354

Query string: Can you check `RRIRCRPPRLPRPRPRPPQQPRP` next?
Result string: 0.549

Query string: Can you check `RRIRARPPRLPRPRPRPEEIPRP` next?
Result string: 0.289

Query string: Can you check `RRIRMRPPRLPRPRPRPFVIPRP` next?
Result string: -0.197

Query string: Can you check `RRIRDRPPRLPRPRPRPWCEPRP` next?
Result string: -0.093

Query string: Can you check `RRIRCRPPRLPRPRPRPVVPPRP` next?
Result string: -0.168

Query string: Can you check `RRIRYRPPRLPRPRPRPTYFPRP` next?
Result string: -0.485

Query string: Can you check `RRIRTRPPRLPRPRPRPEGLPRP` next?
Result string: 0.0624

Query string: Can you check `RRIRFRPPRLPRPRPRPHNFPRP` next?
Result string: -0.399

Query string: Can you check `RRIRARPPRLPRPRPRPFFTPRP` next?
Result string: 0.617

Query string: Can you check `RRIRRRPPRLPRPRPRPRERPRP` next?
Result string: 1.02

Query string: Can you check `RRIRNRPPRLPRPRPRPICGPRP` next?
Result string: -0.253

Query string: Can you check `RRIRERPPRLPRPRPRPLVEPRP` next?
Result string: -0.229

Query string: Can you check `RRIRCRPPRLPRPRPRPTNIPRP` next?
Result string: -0.662

Query string: Can you check `RRIRKRPPRLPRPRPRPSDKPRP` next?
Result string: -0.41

Query string: Can you check `RRIRPRPPRLPRPRPRPDFWPRP` next?
Result string: 0.527

Query string: Can you check `RRIRCRPPRLPRPRPRPIMNPRP` next?
Result string: -0.911

Query string: Can you check `RRIRSRPPRLPRPRPRPISEPRP` next?
Result string: -0.0465

Query string: Can you check `RRIRCRPPRLPRPRPRPYNFPRP` next?
Result string: -0.497

Query string: Can you check `RRIRARPPRLPRPRPRPKGAPRP` next?
Result string: 0.514

Query string: Can you check `RRIRTRPPRLPRPRPRPGCYPRP` next?
Result string: -0.115

Query string: Can you check `RRIRQRPPRLPRPRPRPELRPRP` next?
Result string: -0.043

Query string: Can you check `RRIRLRPPRLPRPRPRPVKDPRP` next?
Result string: -0.211

Query string: Can you check `RRIRDRPPRLPRPRPRPICMPRP` next?
Result string: -0.00256

Query string: Can you check `RRIRARPPRLPRPRPRPCIMPRP` next?
Result string: -0.00141
